experiment-summary: Exposed Polar Surface Area (EPSA)
Assay type: physicochemical
protocol-conditions: SFC on Chirex 3014 column; sample 1 mM DMSO stock; read-out: EPSA
Give EPSA for every item shown.
Remember to follow the number with its unit.

Inquiry: Give the measured EPSA for CC(=O)NCCCC[C@H](NC(=O)C1(NC(=O)[C@H](Cc2ccc3ccccc3c2)NC(=O)[C@H](Cc2ccc(OCCN)cc2)NC(=O)[C@H]2NC(=O)[C@H](CCCCN(C)C(C)=O)NC(=O)[C@H](Cc3c[nH]c4c(C)cccc34)NC(=O)[C@H]([C@@H](C)O)NC(=O)[C@H](CC(N)=O)NC(=O)[C@@H](NC(=O)C(COCCOCC[N+](C)(C)C)NC(C)=O)C(C)(C)SSC2(C)C)CCOCC1)C(=O)N[C@@H](CC(N)=O)C(=O)N[C@@H](Cc1cccnc1)C(=O)N(C)CC(N)=O (mixture of isomers)
Reply text: 171 A^2

Inquiry: Give the measured EPSA for CC(=O)NCCCC[C@@H]1NC(=O)[C@H](Cc2c[nH]c3c(C)cccc23)NC(=O)[C@H]([C@@H](C)O)NC(=O)[C@H](CC(N)=O)NC(=O)[C@@H](NC(C)=O)C(C)(C)SSC(C)(C)[C@@H](C(=O)N[C@@H](Cn2cc(CC[N+](C)(C)C)nn2)C(=O)N[C@@H](Cc2ccc3ccccc3c2)C(=O)NC2(C(=O)N[C@@H](CCCCNC(C)=O)C(=O)N[C@@H](CC(N)=O)C(=O)N[C@@H](Cc3cccnc3)C(=O)N(C)CC(N)=O)CCOCC2)NC1=O
Reply text: 146 A^2
